Data credit: paper PMC7758046

Below are compounds with their pIC50 as measured on human VEGFR-2 (Homo sapiens).
Sequence (P35968 20-1356): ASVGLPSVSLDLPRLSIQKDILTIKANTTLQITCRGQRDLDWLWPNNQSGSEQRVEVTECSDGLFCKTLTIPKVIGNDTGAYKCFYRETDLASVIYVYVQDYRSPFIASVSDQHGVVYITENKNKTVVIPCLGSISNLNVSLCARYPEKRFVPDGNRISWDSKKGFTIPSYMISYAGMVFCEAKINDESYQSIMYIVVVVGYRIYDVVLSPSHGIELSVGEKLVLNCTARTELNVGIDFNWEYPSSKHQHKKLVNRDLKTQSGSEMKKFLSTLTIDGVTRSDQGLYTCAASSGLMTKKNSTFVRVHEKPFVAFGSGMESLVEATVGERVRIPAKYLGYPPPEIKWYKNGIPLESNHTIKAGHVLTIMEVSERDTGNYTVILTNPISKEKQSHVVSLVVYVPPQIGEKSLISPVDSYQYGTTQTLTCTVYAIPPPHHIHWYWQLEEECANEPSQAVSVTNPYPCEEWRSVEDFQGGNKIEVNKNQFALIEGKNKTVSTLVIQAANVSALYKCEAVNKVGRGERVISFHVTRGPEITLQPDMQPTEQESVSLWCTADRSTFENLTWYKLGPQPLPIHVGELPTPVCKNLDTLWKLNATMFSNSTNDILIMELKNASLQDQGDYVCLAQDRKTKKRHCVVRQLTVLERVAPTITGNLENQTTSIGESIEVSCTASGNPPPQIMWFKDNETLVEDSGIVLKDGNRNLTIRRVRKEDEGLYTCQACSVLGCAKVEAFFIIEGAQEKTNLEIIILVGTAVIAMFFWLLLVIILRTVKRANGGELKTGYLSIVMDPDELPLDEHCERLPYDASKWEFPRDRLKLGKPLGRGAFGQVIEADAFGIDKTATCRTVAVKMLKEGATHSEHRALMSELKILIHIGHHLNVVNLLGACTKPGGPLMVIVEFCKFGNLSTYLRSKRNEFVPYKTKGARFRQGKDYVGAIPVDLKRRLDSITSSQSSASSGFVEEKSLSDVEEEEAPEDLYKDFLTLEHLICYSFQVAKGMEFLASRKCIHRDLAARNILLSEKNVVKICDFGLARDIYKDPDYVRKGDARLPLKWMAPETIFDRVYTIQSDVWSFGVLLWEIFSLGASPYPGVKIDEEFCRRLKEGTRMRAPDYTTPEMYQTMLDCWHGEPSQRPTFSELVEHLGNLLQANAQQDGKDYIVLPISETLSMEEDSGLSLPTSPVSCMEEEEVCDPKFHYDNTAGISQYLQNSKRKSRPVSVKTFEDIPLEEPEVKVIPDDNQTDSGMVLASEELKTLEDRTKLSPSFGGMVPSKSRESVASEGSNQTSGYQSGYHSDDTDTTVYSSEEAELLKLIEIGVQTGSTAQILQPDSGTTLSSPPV
pIC50: −log10 of the molar value.
REPORTED_ENDPOINT: pIC50

1) O=C(C=Cc1cccc(F)c1)c1ccc(N2CCNCC2)cc1 [Vd] : 6.10
2) Fc1cnccc1C1CC(c2ccc(N3CCNCC3)cc2)=NN1 (stereo not drawn) [VIc] : 5.88
3) COc1cc(C=CC(=O)c2ccc(N3CCNCC3)cc2)ccc1F [Ve] : 6.24
4) COc1cc(C2CC(c3ccc(N4CCNCC4)cc3)=NN2)ccc1F (stereo not drawn) [VIb] : 5.97
5) N#Cc1ccccc1C1CC(c2ccc(N3CCNCC3)cc2)=NN1 (stereo not drawn) [VIa] : 5.83
6) O=C(C=Cc1ccncc1F)c1ccc(N2CCNCC2)cc1 [Vf] : 5.88

* * *

# Tested on: IGROV1 (Ovarian cancer)
# TEST_SUMMARY: NCI-60 single-dose anticancer screen
# Type: cell-based, human
# MEASUREMENT_CONDITIONS: 10 µM single dose
Tick class 1 if cell growth promotion is 70% or greater. Tick class 0 if cell growth promotion is less than 70%.

1) COc1cc(C=CC(=O)c2ccc(N3CCNCC3)cc2)ccc1F : class 0
2) COc1cc(C2CC(c3ccc(N4CCNCC4)cc3)=NN2)ccc1F (stereo not drawn) : class 1
3) N#Cc1ccccc1C1CC(c2ccc(N3CCNCC3)cc2)=NN1 (stereo not drawn) : class 1
4) O=C(C=Cc1ccncc1F)c1ccc(N2CCNCC2)cc1 : class 1

* * *

# Test system: SNB-19 (CNS cancer)
# TEST_SUMMARY: NCI-60 single-dose anticancer screen
# Format: cell-based, human
# MEASUREMENT_CONDITIONS: 10 µM single dose
REPORTED_ENDPOINT: cell growth promotion

1. O=C(C=Cc1cccc(F)c1)c1ccc(N2CCNCC2)cc1 : 71.95%
2. Fc1cnccc1C1CC(c2ccc(N3CCNCC3)cc2)=NN1 (stereo not drawn) : 97.45%
3. O=C(C=Cc1ccncc1F)c1ccc(N2CCNCC2)cc1 : 96.07%
4. COc1cc(C=CC(=O)c2ccc(N3CCNCC3)cc2)ccc1F : 59.87%
5. N#Cc1ccccc1C1CC(c2ccc(N3CCNCC3)cc2)=NN1 (stereo not drawn) : 95.34%
6. COc1cc(C2CC(c3ccc(N4CCNCC4)cc3)=NN2)ccc1F (stereo not drawn) : 95.65%

* * *

# Test system: OVCAR-4 (Ovarian cancer)
# TEST_SUMMARY: NCI-60 single-dose anticancer screen
# Type: cell-based, human
# MEASUREMENT_CONDITIONS: 10 µM single dose
This listing pairs compounds with measured cell growth promotion.
REPORTED_ENDPOINT: cell growth promotion (%)

1) COc1cc(C2CC(c3ccc(N4CCNCC4)cc3)=NN2)ccc1F (stereo not drawn) : 91.49
2) Fc1cnccc1C1CC(c2ccc(N3CCNCC3)cc2)=NN1 (stereo not drawn) : 108.25
3) O=C(C=Cc1ccncc1F)c1ccc(N2CCNCC2)cc1 : 110.55
4) N#Cc1ccccc1C1CC(c2ccc(N3CCNCC3)cc2)=NN1 (stereo not drawn) : 101.39
5) O=C(C=Cc1cccc(F)c1)c1ccc(N2CCNCC2)cc1 : 80.53
6) COc1cc(C=CC(=O)c2ccc(N3CCNCC3)cc2)ccc1F : 68.87

* * *

# System: NCI-H23 (Non-small cell lung cancer)
# TEST_SUMMARY: NCI-60 single-dose anticancer screen
# Type: cell-based, human
# MEASUREMENT_CONDITIONS: 10 µM single dose
REPORTED_ENDPOINT: cell growth promotion (%)

1) Fc1cnccc1C1CC(c2ccc(N3CCNCC3)cc2)=NN1 (stereo not drawn) : 83.85
2) O=C(C=Cc1cccc(F)c1)c1ccc(N2CCNCC2)cc1 : 77.30
3) COc1cc(C2CC(c3ccc(N4CCNCC4)cc3)=NN2)ccc1F (stereo not drawn) : 75.49
4) COc1cc(C=CC(=O)c2ccc(N3CCNCC3)cc2)ccc1F : 92.63
5) O=C(C=Cc1ccncc1F)c1ccc(N2CCNCC2)cc1 : 102.52
6) N#Cc1ccccc1C1CC(c2ccc(N3CCNCC3)cc2)=NN1 (stereo not drawn) : 91.73
